study.system: Ba/F3 cell EGFR Exon20 ins NPH (Homo sapiens, UniProt P00533, INS773NPH)
Construct: expressed in transfected cells; host or cells: Ba/F3
assay.notes: Ba/F3 cell proliferation suppression, EGFR Exon20 ins NPH
Type: cell-based
condition.details: GI50 class; Ba/F3 cell line with NPH inserted at Exon20 of EGFR; 72 hours
experimental.readout: Ba/F3 (NPH) Activity

C=CC(=O)Nc1cc(Nc2cc(N3OCC[C@@H]3c3ccc(F)c(Cl)c3F)ncn2)c(OC)cc1N1CCC(N2CCN(C3CCC3)CC2)CC1 [Example 193] | A (GI50 < 50 nM)
C=CC(=O)Nc1cc(Nc2cc(N3OCC[C@@H]3c3cccc4ccccc34)ncn2)c(OC)cc1N1CC[C@@H](N(C)C)C1 [compound 443] | A (GI50 < 50 nM)
C=CC(=O)Nc1cc(Nc2cc(N3OCC[C@@H]3c3ccc(Cl)c(Cl)c3)ncn2)c(OC)cc1N1C[C@@H]2C[C@H]1CN2C [compound 684] | A (GI50 < 50 nM)
